Source of measurements: the supplement of paper PMC8617591

Tested on: Mycobacterium tuberculosis Erdman (autoluminescent)
test-details: AUC25, normalised area under dose response up to IC25 (fraction (0-1)); higher = more potent at low dose
condition-context: in vitro model: butyrate; time point: constant (~7 days, model-specific)
Consider the following molecules; for each one, report its AUC25.

INSERT INTO assay_data (molecule, measured) VALUES
  ('COc1c(N2C[C@@H]3CCCN[C@@H]3C2)c(F)cc2c(=O)c(C(=O)O)cn(C3CC3)c12 [moxifloxacin] + CO[C@H]1/C=C/O[C@@]2(C)Oc3c(C)c(O)c4c(O)c(c(/C=N/N5CCN(C6CCCC6)CC5)c(O)c4c3C2=O)NC(=O)/C(C)=C\C=C\[C@H](C)[C@H](O)[C@@H](C)[C@@H](O)[C@@H](C)[C@H](OC(C)=O)[C@@H]1C', 0.0933);

Field: next molecule
Form: Entry = CC(=O)NC[C@H]1CN(c2ccc(N3CCOCC3)c(F)c2)C(=O)O1 [linezolid] + O=[N+]([O-])c1cn2c(n1)OC[C@@H](OCc1ccc(OC(F)(F)F)cc1)C2 | System = Mycobacterium tuberculosis Erdman (autoluminescent) | AUC25 = ____
0.0973

###

System: Mycobacterium tuberculosis Erdman (autoluminescent)
test-details: FIC50 (Loewe) at 50% inhibition (log2); higher = more antagonistic
condition-context: in vitro model: standard 7H9 glycerol; time point: constant = terminal
# label = Satisfied if FIC50 >= -0.08 else Not satisfied

Some entries whose results are on file:
INSERT INTO assay_data (compound, label) VALUES
  ('NNC(=O)c1ccncc1 [isoniazid] + O=[N+]([O-])c1cn2c(n1)OC[C@@H](OCc1ccc(OC(F)(F)F)cc1)C2 [pretomanid]', 'Satisfied'),
  ('CC(C)/N=c1\cc2n(-c3ccc(Cl)cc3)c3ccccc3nc-2cc1Nc1ccc(Cl)cc1 [clofazimine] + O=[N+]([O-])c1cn2c(n1)OC[C@@H](OCc1ccc(OC(F)(F)F)cc1)C2 [pretomanid]', 'Not satisfied'),
  ('NC(=O)c1cnccn1 [pyrazinamide] + CO[C@H]1/C=C/O[C@@]2(C)Oc3c(C)c(O)c4c(O)c(c(/C=N/N5CCN(C)CC5)c(O)c4c3C2=O)NC(=O)/C(C)=C\C=C\[C@H](C)[C@H](O)[C@@H](C)[C@@H](O)[C@@H](C)[C@H](OC(C)=O)[C@@H]1C', 'Not satisfied'),
  ('NNC(=O)c1ccncc1 [isoniazid] + CO[C@H]1/C=C/O[C@@]2(C)Oc3c(C)c(O)c4c(O)c(c(/C=N/N5CCN(C6CCCC6)CC5)c(O)c4c3C2=O)NC(=O)/C(C)=C\C=C\[C@H](C)[C@H](O)[C@@H](C)[C@@H](O)[C@@H](C)[C@H](OC(C)=O)[C@@H]1C [rifapentine]', 'Satisfied'),
  ('CC(C)/N=c1\cc2n(-c3ccc(Cl)cc3)c3ccccc3nc-2cc1Nc1ccc(Cl)cc1 [clofazimine] + CO[C@H]1/C=C/O[C@@]2(C)Oc3c(C)c(O)c4c(O)c(c(/C=N/N5CCN(C)CC5)c(O)c4c3C2=O)NC(=O)/C(C)=C\C=C\[C@H](C)[C@H](O)[C@@H](C)[C@@H](O)[C@@H](C)[C@H](OC(C)=O)[C@@H]1C [rifampicin]', 'Not satisfied');

Here's the next entry for you.
Has CC(C)/N=c1\cc2n(-c3ccc(Cl)cc3)c3ccccc3nc-2cc1Nc1ccc(Cl)cc1 [clofazimine] + CC(=O)NC[C@H]1CN(c2ccc(N3CCOCC3)c(F)c2)C(=O)O1 [linezolid] a recorded FIC50 greater than or equal to -0.08?
Satisfied

###

System: Mycobacterium tuberculosis Erdman (autoluminescent)
test-details: total FIC90 (Loewe) at 90% inhibition, three-drug combination (log2); higher = more antagonistic
condition-context: in vitro model: acidic pH 5.7; time point: terminal (~4-5 doublings, model-specific)
Provide the recorded total FIC90 for the entries that follow.
Give bare numbers.

INSERT INTO results (compound, quantity_name, measured) VALUES
  ('NNC(=O)c1ccncc1 [isoniazid] + NC(=O)c1cnccn1 [pyrazinamide] + CO[C@H]1/C=C/O[C@@]2(C)Oc3c(C)c(O)c4c(O)c(c(/C=N/N5CCN(C6CCCC6)CC5)c(O)c4c3C2=O)NC(=O)/C(C)=C\C=C\[C@H](C)[C@H](O)[C@@H](C)[C@@H](O)[C@@H](C)[C@H](OC(C)=O)[C@@H]1C [rifapentine]', 'total FIC90', -3.81),
  ('COc1nc2ccc(Br)cc2cc1[C@@H](c1ccccc1)[C@@](O)(CCN(C)C)c1cccc2ccccc12 [bedaquiline] + CC(C)/N=c1\cc2n(-c3ccc(Cl)cc3)c3ccccc3nc-2cc1Nc1ccc(Cl)cc1 [clofazimine] + CC[C@@H](CO)NCCN[C@@H](CC)CO [ethambutol]', 'total FIC90', 0.129),
  ('CC(C)/N=c1\cc2n(-c3ccc(Cl)cc3)c3ccccc3nc-2cc1Nc1ccc(Cl)cc1 [clofazimine] + CC[C@@H](CO)NCCN[C@@H](CC)CO [ethambutol] + NNC(=O)c1ccncc1 [isoniazid]', 'total FIC90', 0.618);

Next item in the queue.
For CC[C@@H](CO)NCCN[C@@H](CC)CO [ethambutol] + CC(=O)NC[C@H]1CN(c2ccc(N3CCOCC3)c(F)c2)C(=O)O1 [linezolid] + NC(=O)c1cnccn1 [pyrazinamide] , what is its reported total FIC90?
-1.27

###

System: Mycobacterium tuberculosis Erdman (autoluminescent)
test-details: GRinf, maximum normalised growth rate inhibition (unitless (-1 to 1)); higher = less effect (negative = killing)
condition-context: in vitro model: cholesterol-high 0.2 mM; time point: constant (~7 days, model-specific)
Assign true (1) whenever GRinf does not fall below -0.3; assign false (0) whenever it does.

Hello, I need to know if COc1nc2ccc(Br)cc2cc1[C@@H](c1ccccc1)[C@@](O)(CCN(C)C)c1cccc2ccccc12 [bedaquiline] + CC(C)/N=c1\cc2n(-c3ccc(Cl)cc3)c3ccccc3nc-2cc1Nc1ccc(Cl)cc1 [clofazimine] has measured GRinf not below -0.3. Thanks!
false (0)

Threshold query (GRinf >= -0.3) on O=[N+]([O-])c1cn2c(n1)OC[C@@H](OCc1ccc(OC(F)(F)F)cc1)C2 [pretomanid] + NC(=O)c1cnccn1 [pyrazinamide]
true (1)

###

Test system: Mycobacterium tuberculosis Erdman (autoluminescent)
test-details: AUC25, normalised area under dose response up to IC25 (fraction (0-1)); higher = more potent at low dose
condition-context: in vitro model: valerate; time point: constant (~7 days, model-specific)
I'd appreciate it if you could supply AUC25 values for the items below.
Numbers only.

Provide AUC25 values for the following items, in order.
1. NNC(=O)c1ccncc1
2. CC(=O)NC[C@H]1CN(c2ccc(N3CCOCC3)c(F)c2)C(=O)O1
3. NC(=O)c1cnccn1 [pyrazinamide]
4. CO[C@H]1/C=C/O[C@@]2(C)Oc3c(C)c(O)c4c(O)c(c(/C=N/N5CCN(C6CCCC6)CC5)c(O)c4c3C2=O)NC(=O)/C(C)=C\C=C\[C@H](C)[C@H](O)[C@@H](C)[C@@H](O)[C@@H](C)[C@H](OC(C)=O)[C@@H]1C

0.0515
0.106
0.0917
0.0524

###

Provide the reported GRinf of each item.
Tested on: Mycobacterium tuberculosis Erdman (autoluminescent)
test-details: GRinf, maximum normalised growth rate inhibition (three-drug combination) (unitless (-1 to 1)); higher = less effect (negative = killing)
condition-context: in vitro model: acidic pH 5.7; time point: constant (~7 days, model-specific)
Give bare numbers.

Completed entries (count: 3):
INSERT INTO measurements (molecule, system_name, quantity_name, measured) VALUES
  ('NNC(=O)c1ccncc1 [isoniazid] + CC(=O)NC[C@H]1CN(c2ccc(N3CCOCC3)c(F)c2)C(=O)O1 [linezolid] + NC(=O)c1cnccn1 [pyrazinamide]', 'Mycobacterium tuberculosis Erdman (autoluminescent)', 'GRinf', -0.287),
  ('CC[C@@H](CO)NCCN[C@@H](CC)CO [ethambutol] + CC(=O)NC[C@H]1CN(c2ccc(N3CCOCC3)c(F)c2)C(=O)O1 [linezolid] + COc1c(N2C[C@@H]3CCCN[C@@H]3C2)c(F)cc2c(=O)c(C(=O)O)cn(C3CC3)c12 [moxifloxacin]', 'Mycobacterium tuberculosis Erdman (autoluminescent)', 'GRinf', -0.587),
  ('COc1nc2ccc(Br)cc2cc1[C@@H](c1ccccc1)[C@@](O)(CCN(C)C)c1cccc2ccccc12 [bedaquiline] + CC(C)/N=c1\cc2n(-c3ccc(Cl)cc3)c3ccccc3nc-2cc1Nc1ccc(Cl)cc1 [clofazimine] + COc1c(N2C[C@@H]3CCCN[C@@H]3C2)c(F)cc2c(=O)c(C(=O)O)cn(C3CC3)c12 [moxifloxacin]', 'Mycobacterium tuberculosis Erdman (autoluminescent)', 'GRinf', -0.457);

// switching to the query molecule
GET /values?readout=GRinf&item= COc1c(N2C[C@@H]3CCCN[C@@H]3C2)c(F)cc2c(=O)c(C(=O)O)cn(C3CC3)c12 [moxifloxacin] + O=[N+]([O-])c1cn2c(n1)OC[C@@H](OCc1ccc(OC(F)(F)F)cc1)C2 [pretomanid] + NC(=O)c1cnccn1 [pyrazinamide]
-0.227
